- SYSTEM TESTED: Glucose transporter (Leishmania mexicana)
- PROTOCOL DESCRIPTION: ST_JUDE_LEISH: Cytotoxicity at 2uM final concentration against transgenic Leishmania Mexicana promastigotes LmGT2 that are glucose transport deficient and complemented with the L. Mexicana glucose transporter 2. Activity is measured by DNA content using SYBR green in vitro
- Assay type: functional
PROPERTY MEASURED: inhibition (%)
One number for each entry, in %.

MOLECULE	SYSTEM TESTED	UNITS TEXT	NUMERIC VALUE
CC(C)(C)c1ccc(NC(=O)c2cccc(CN3CCCN(CC4CCCCC4)CC3)c2)cc1	Glucose transporter (Leishmania mexicana)	%	3.88
NC1CCN(Cc2cccc(-c3ccc(-c4nc5cc(C(F)(F)F)ccc5[nH]4)cc3)c2)C1 (stereo not given)	Glucose transporter (Leishmania mexicana)	%	2.71
CC(CN1CCN(C)CC1)C(=O)Nc1cccc(-c2cccc(-c3nc4cc(F)ccc4[nH]3)c2)c1 (stereo not given)	Glucose transporter (Leishmania mexicana)	%	5.91
c1ccc(-c2ccc(-c3csc(Nc4ccncc4)n3)cc2)cc1	Glucose transporter (Leishmania mexicana)	%	1.13

Next, consider the following molecule.
Q. Give measured inhibition for Cc1cc(=NN=Cc2ccccc2Cl)c2cc(C(F)(F)F)ccc2[nH]1 (Glucose transporter (Leishmania mexicana)).
A. 1.27
